# assay_target: KRas^G12D (Homo sapiens, UniProt P01116, G12D)
# Construct: Biotinylated KRas (corresponding to amino acids 1-169, produced at Accelegan Inc.); biotin (biotinylated); purchased Accelegan Inc
# Sequence (P01116 1-169 isoform P01116-2 G12D): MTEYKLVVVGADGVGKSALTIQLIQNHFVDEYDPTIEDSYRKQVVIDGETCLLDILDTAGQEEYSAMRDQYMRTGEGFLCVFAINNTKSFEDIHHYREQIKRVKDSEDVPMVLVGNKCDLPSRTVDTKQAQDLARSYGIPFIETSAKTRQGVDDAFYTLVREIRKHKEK
# assay_remarks: KRas binding assay (TR-FRET tracer displacement), KRas G12D
# note: boundary value 4 nM maps to not met; IC50 below it maps to met

CCc1c(F)ccc2cc(O)cc(-c3ncc4c(N5CC6CCC(C5)C6(C)O)nc(OC[C@@]56CCCN5C[C@H](F)C6)nc4c3F)c12 (stereo partly drawn) :: not met
CCc1c(F)ccc2cc(O)cc(-c3ncc4c(N5CCCC(N6CCCCS6(=O)=O)C5)nc(OC[C@@]56CCCN5C[C@H](F)C6)nc4c3F)c12 (stereo partly drawn) :: not met
O=S1(=O)NCC2(CCCN(c3nc(OC[C@@]45CCCN4C[C@H](F)C5)nc4c(F)c(-c5c6ccccc6cc6[nH]ncc56)ncc34)C2)N1 (stereo partly drawn) :: met

Ask: For CCc1c(F)ccc2c(F)c(O)cc(-c3ncc4c(N5C[C@@H]6C[C@H](C5)[C@H](O)C6)nc(OC[C@@]56CCCN5C[C@H](F)C6)nc4c3F)c12 , is the recorded IC50 below the cut-off of 4 nM?
Result: not met

Ask: Quick check: does CCc1c(F)ccc2cc(O)cc(-c3ncc4c(N5CCCC6(CNS(=O)(=O)C6)C5)nc(OC[C@@]56CCCN5C[C@H](F)C6)nc4c3F)c12 (stereo partly drawn) have IC50 under 4 nM?
Result: met
